biological target: T1, hRET.mmh (human, UniProt P07949 29-635, biotinylated in the ELISA of Example 4 (biot-hRET.mmh); not in the SPR of Example 3); test: SPR Biacore T200, mAb capture, 37 C
T1 construct: also called biot-hRET.mmh; soluble monomeric human RET
parameter_measured: kon (M⁻¹ s⁻¹)
Quick note: give the figure in M⁻¹ s⁻¹, leave out the unit.

{"binder": "H4H8085P (antibody, human IgG4, V domains shown, human IgG4 Fc (H4H prefix)) VH: QVQLVESGGGVVQPGRSLRLSCTASGFTFDNYGMHWVRQAPGKGLEWVAVISYDGSNTFYADSVKGRFTISRDNSKNALYLQMNSLRAEDTAVYYCAKDLEFDILIGYPFDSWGRGTLVTVSS VL: DIQLTQSPSFLSASVGDRVTITCWASQDISRYLAWYQQKPGKAPNLLIYAASTLQSGVPSRFSGSGSGTEFTLTINSLQPEDFATYYCQQLFSYPRTFGQGTKVEIK", "parameter_measured": "kon", "reported_value": 144000}

Query :: Note down kon recorded for H4H8045P (antibody, human IgG4, V domains shown, human IgG4 Fc (H4H prefix)) VH: EVQLVESGGALVQPGGSLRLSCAASGFTFSNYAMTWVRQAPGMGLEWVSGISSSGASTFYADSVKGRFTISRDNSKNTLYLQMNSLRAEDTAVYYCAKEDYWGWFDYWGQGTLVTVSS VL: DIQLTQSPSFLSASVGDRVTITCWASQDVSSYLAWYQQEPGKAPKVLIYDASTLQSGVPSRFSGSGSGTEFTLTISSLQPEDFAPYYCQQLNSYPYTFGQGTKLEIK
Result :: 395000

Query :: Note down kon recorded for H4H8080P (antibody, human IgG4, V domains shown, human IgG4 Fc (H4H prefix)) VH: EVQLVESGGGLVQSGGSLRLSCVASGFTFSTYAMTWVRQAPGRGLEWVSAISGSGASTYYADSLKGRFTVSRDNSKNTLYLQMNSLRAEDTAVYYCSKDHRNYDSDYDMDVWGQGTTVTVSS VL: DIQMTQSPSSLSASVGDRVTITCRASQGIRNYLGWYQQKPGKAPKRLIYTASSLQSGVPSRFRGSGSGTEFTLTISSLQPEDFATYYCLQHNSYPYTFGQGTKLEIK
Result :: 285000

Query :: Note down kon recorded for H4H8058P (antibody, human IgG4, V domains shown, human IgG4 Fc (H4H prefix)) VH: QVQLVESGGGVGQPGRSLRLSCVASGFTFRNYGMHWVRQAPGKGLDWVAIIGYDGSKEYNVDSVKGRFTISRDNSKNTLYLQMNSLGAEDTAIYYCARESPITGTTFDYWGQGTLVTVSS VL: DIQMTQSPPSLSASVGDRVTITCRASQSIGNYLNWYQQKPGKAPKILIYAASRLQSGVPSRFSGSGSGTDFTLTISSLQPEDFATYYCQQSYSTPLTFGGGTKVEIK
Result :: 528000

Query :: Note down kon recorded for H4H8062P (antibody, human IgG4, V domains shown, human IgG4 Fc (H4H prefix)) VH: EVQLVESGGGLVQPGGSLRLSCSVSGFIFKNYAMRWVRQAPGKGLEWVSGISGSGGITYYADSVRGRVTISRDNSKNTLDLQMTNLRAEDTAVYYCAKAEYSSSGAYFDYWGQGTLVTVSS VL: DIQMTQSPSSLSASVGDRVTITCRASQSIHNYLNWYLQRPGKAPKLLVYAASSLQSGVPSRFSGRGSGTDFTLTISSLQPEDFATYYCQQSYSAPYSFGQGTKLEIK
Result :: 682000
